# experimental system: P-gp (Homo sapiens, UniProt P08183)
# Construct: expressed in transfected cells; host or cells: NIH3T3 (ATCC CRL-1658), stably transfected with retroviral vector pHaMDR1/A
# Sequence (P08183 whole entry): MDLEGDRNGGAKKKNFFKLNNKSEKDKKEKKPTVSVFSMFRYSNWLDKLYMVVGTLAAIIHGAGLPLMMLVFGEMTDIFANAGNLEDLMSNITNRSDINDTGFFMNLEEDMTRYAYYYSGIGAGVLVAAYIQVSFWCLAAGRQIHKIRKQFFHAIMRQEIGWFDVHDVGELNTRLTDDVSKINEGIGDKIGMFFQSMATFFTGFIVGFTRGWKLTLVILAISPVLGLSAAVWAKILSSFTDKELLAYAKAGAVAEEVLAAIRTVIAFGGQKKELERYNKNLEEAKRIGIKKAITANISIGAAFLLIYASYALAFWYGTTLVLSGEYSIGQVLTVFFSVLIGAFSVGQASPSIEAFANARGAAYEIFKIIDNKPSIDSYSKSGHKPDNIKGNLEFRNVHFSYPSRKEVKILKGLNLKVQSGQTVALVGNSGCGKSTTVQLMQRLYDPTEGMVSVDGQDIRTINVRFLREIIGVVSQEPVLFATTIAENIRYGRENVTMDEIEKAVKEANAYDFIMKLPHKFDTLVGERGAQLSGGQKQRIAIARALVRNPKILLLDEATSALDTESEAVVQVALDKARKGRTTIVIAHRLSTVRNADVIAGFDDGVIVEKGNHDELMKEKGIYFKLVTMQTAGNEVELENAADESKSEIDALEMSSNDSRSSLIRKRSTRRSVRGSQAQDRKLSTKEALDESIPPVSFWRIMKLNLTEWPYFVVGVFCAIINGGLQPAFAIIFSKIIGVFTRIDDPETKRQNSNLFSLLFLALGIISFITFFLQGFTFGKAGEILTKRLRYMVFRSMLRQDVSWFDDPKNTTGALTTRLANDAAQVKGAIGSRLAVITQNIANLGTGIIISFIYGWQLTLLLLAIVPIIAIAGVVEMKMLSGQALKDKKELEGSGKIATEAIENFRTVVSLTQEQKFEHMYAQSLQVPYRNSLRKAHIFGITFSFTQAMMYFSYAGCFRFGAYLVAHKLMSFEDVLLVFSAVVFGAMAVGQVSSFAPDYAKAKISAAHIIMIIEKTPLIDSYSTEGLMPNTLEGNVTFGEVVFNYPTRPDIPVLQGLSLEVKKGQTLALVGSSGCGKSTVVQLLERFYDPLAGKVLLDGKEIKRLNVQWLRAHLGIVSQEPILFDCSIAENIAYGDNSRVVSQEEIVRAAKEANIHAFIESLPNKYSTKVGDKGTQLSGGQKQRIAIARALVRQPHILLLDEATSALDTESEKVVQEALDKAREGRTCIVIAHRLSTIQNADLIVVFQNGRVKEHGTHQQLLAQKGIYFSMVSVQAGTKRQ
# procedure details: Flow cytometry, inhibition of mitoxantrone efflux in NIH3T3 cells expressing P-gp
# Assay type: cell-based
# condition set: human, probe mitoxantrone; 0.12 μM compound; according to FIG. 3; read-out: efflux inhibition effectiveness
quantity name: inhibition at 1 h, 0.12 µM (%)
Numeric only. Scale: %

Task item: Query inhibition at 1 h, 0.12 µM for "CC(C)(C)OC(=O)[C@H](CCCCNC(=O)OCc1ccccc1)NC[C@@H]1C[C@@H](OCc2ccccc2)CN1C(=O)OC(C)(C)C"
Reply: 25

----------
# experimental system: P-gp (Homo sapiens, UniProt P08183)
# procedure details: Flow cytometry, inhibition of mitoxantrone efflux in NIH3T3 cells expressing P-gp
# condition set: mitoxantrone efflux; mathematical adjustment of experimental points
Square brackets hold non-standard residues; d marks the D form. Peptide text beside a SMILES is read from it. * marks the point of attachment. Hyp = O=C(O)[C@@H]1C[C@@H](O)CN1; Cbz = O=C(OCc1ccccc1)*; Boc = CC(C)(C)OC(=O)*; OBn = c1ccc(CO*)cc1; Bn = c1ccc(C*)cc1; OtBu = CC(C)(C)O*
Listed molecules paired with reported IC50
Quick reminder: number only, in nM, skip the unit.

| molecule | uom | measured result |
| --- | --- | --- |
| CC(C)(C)OC(=O)C(CCCCNC(=O)OCc1ccccc1)NC(=O)C1CC(OC(=O)C2CCCCC2)CN1C(=O)OC(C)(C)C (centres unmarked) | nM | 1680 |
| CC(C)(C)OC(=O)[C@H](CCCCNC(=O)OCc1ccccc1)NC[C@@H]1C[C@@H](OCc2ccccc2)CN1C(=O)OC(C)(C)C | nM | 220 |
| CC(C)(C)OC(=O)[C@H](CCCCNC(=O)OCc1ccccc1)NC(=O)[C@@H]1C[C@@H](OCc2ccccc2)CN1C(=O)OC(C)(C)C [No. 4, N^α-Boc-trans-L-4-Hyp(Bn)-L-Lys(Z)-OtBu] (Boc-[Hyp](Bn)-Lys(Cbz)-OtBu) | nM | 730 |
| CC(C)(C)OC(=O)N[C@@H](CC(=O)OCc1ccccc1)C(=O)N[C@@H](CCCCNC(=O)OCc1ccccc1)C(=O)OC(C)(C)C [Reversin 121, reference compound] (Boc-Asp(OBn)-Lys(Cbz)-OtBu) | nM | 1410 |

Let us examine a further case.
Task item: Give IC50 for the following molecule: "CC(C)(C)OC(=O)[C@H](CCCCNC(=O)OCc1ccccc1)NC(=O)[C@@H]1C[C@@H](OCC2CCCCC2)CN1C(=O)OC(C)(C)C"
Reply: 1130

----------
inhibition at 1 h, 10 µM: recorded values
# experimental system: P-gp (Homo sapiens)
# Construct: expressed in transfected cells; host or cells: NIH3T3 (ATCC CRL-1658), stably transfected with retroviral vector pHaMDR1/A
# procedure details: Flow cytometry, inhibition of mitoxantrone efflux in NIH3T3 cells expressing P-gp
# Type: cell-based
# condition set: human, probe mitoxantrone; 10 μM compound; mitoxantrone efflux; read-out: % pump inhibition at 10 μM of compound, P-gp

| compound | inhibition at 1 h, 10 µM |
| --- | --- |
| CC(C)(C)OC(=O)C(CCCCNC(=O)OCc1ccccc1)NC(=O)C1CC(OC(=O)C2CCCCC2)CN1C(=O)OC(C)(C)C (centres unmarked) | 106% |

Now for another entry.
Task item: Kindly indicate its recorded inhibition at 1 h, 10 µM. Item: "CC(C)(C)OC(=O)[C@H](CCCCNC(=O)OCc1ccccc1)NC(=O)[C@@H]1C[C@@H](OCC2CCCCC2)CN1C(=O)OC(C)(C)C"
Reply: 82.2%

----------
# experimental system: P-gp (Homo sapiens, UniProt P08183)
# Construct: expressed in transfected cells; host or cells: NIH3T3 (ATCC CRL-1658), stably transfected with retroviral vector pHaMDR1/A
# procedure details: Flow cytometry, inhibition of mitoxantrone efflux in NIH3T3 cells expressing P-gp
# Assay type: cell-based
# condition set: 10 μM compound; mitoxantrone efflux
Square brackets hold non-standard residues; d marks the D form. Peptide text beside a SMILES is read from it. * marks the point of attachment. Hyp = O=C(O)[C@@H]1C[C@@H](O)CN1; Cbz = O=C(OCc1ccccc1)*; Boc = CC(C)(C)OC(=O)*; OBn = c1ccc(CO*)cc1; Bn = c1ccc(C*)cc1; OtBu = CC(C)(C)O*
quantity name: % pump inhibition at 10 μM of compound, P-gp

| compound | measured result |
| --- | --- |
| CC(C)(C)OC(=O)[C@H](CCCCNC(=O)OCc1ccccc1)NC(=O)[C@@H]1C[C@@H](OCc2ccccc2)CN1C(=O)OC(C)(C)C [No. 4, N^α-Boc-trans-L-4-Hyp(Bn)-L-Lys(Z)-OtBu] (Boc-[Hyp](Bn)-Lys(Cbz)-OtBu) | 99.7 ± 11.0% |
| CC(C)(C)OC(=O)[C@H](CCCCNC(=O)OCc1ccccc1)NC[C@@H]1C[C@@H](OCc2ccccc2)CN1C(=O)OC(C)(C)C | 106.9 ± 23.0% |
| CC(C)(C)OC(=O)[C@H](CCCCNC(=O)OCc1ccccc1)NC(=O)[C@@H]1C[C@@H](OC(=O)Cc2ccccc2)CN1C(=O)OC(C)(C)C (relative stereo) | 68.0 ± 10.0% |

Now, please, on to the next compound.
Task item: Identify measured % pump inhibition at 10 μM of compound, P-gp corresponding to CC(C)(C)OC(=O)N[C@@H](CC(=O)OCc1ccccc1)C(=O)N[C@@H](CCCCNC(=O)OCc1ccccc1)C(=O)OC(C)(C)C [Reversin 121, reference compound] (Boc-Asp(OBn)-Lys(Cbz)-OtBu)
Reply: 75.8 ± 1.6%
